Tested on: F1*sub RNA substrate (template-directed ligation)
Test: fraction ligated after 30 min (ligated reads / total reads); higher = more ligase activity; sequences stand for … in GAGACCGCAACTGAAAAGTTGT…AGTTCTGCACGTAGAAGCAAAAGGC
Conditions: 42 °C
Note to self: values exactly at 0.3 are rule met. So fraction ligated at or above 0.3 is rule met, below is rule not met.

Identify whether the reported fraction ligated of the following sequence is 0.3 or greater: TATCACTTGTCGAGACACTTTGGAGGGTTGA [3d1911]
rule not met

Determine whether measured fraction ligated meets or exceeds 0.3 for TATCACTTGTCGTAAGACCTTGGATGGGTTA [3d2188]
rule met

Confirm if fraction ligated reported for the sequence TATCACTTGTCGTAAACCTTTGGATGGGTTA [3d2072] is 0.3 or above.
rule met

Reported fraction ligated at or above 0.3? TATCACTTGTGTAAGCACTTTGGTGGGTTGA [3d1759]
rule not met

For this sequence, is measured fraction ligated 0.3 or higher? TATCACTTTCTAAGACACTTTGGATGGGTTA [3d1491]
rule met

API: above_or_equal(metric=fraction ligated, cutoff=0.3) for item TATCACTTGTCTAAGACCTTTGGATGGTTGA [3d1868]
rule not met

----------
System: F1*sub RNA substrate (template-directed ligation)
Test: fraction ligated after 30 min (ligated reads / total reads); higher = more ligase activity; sequences stand for … in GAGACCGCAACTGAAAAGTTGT…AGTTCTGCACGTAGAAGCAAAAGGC
Conditions: 42 °C
Rule: Y for fraction ligated not less than 0.6, N for anything less.

Reported fraction ligated reaches at least 0.6 for ATCACTTGTCGTAAGCATTTGGATGGGTTGA [3d223] ?
Y

Does the sequence TTCACTTGTCGAAGACCTTTGGATGGGTTGA [3d420] have recorded fraction ligated that is 0.6 or more?
Y

Does the reported fraction ligated for TTCACTTGTCGTAAGCACTTTGGTGGGTTGA [3d457] fall at or above the 0.6 mark?
N

Could you verify whether the entry ATCACTTGTCGTAAACACTTTGGATGGTTGA [3d218] shows fraction ligated of no less than 0.6?
N

Does the sequence TATCACTTTCGAAGACCTTTGGATGGGTTGA [3d1497] have recorded fraction ligated that is 0.6 or more?
Y

Given TATCACTTGCGTGACACTTTGGATGGGTTGA [3d1626] , state whether its fraction ligated is at least 0.6.
Y

Item TATCACTTGTCGTAAGAATTTGGTGGGTTGA [3d2154] with fraction ligated of 0.6 or above?
N

Is it the case that TATCACTTGTCGTAAGCACTTTATGGGTTGA [3d2135] has fraction ligated reaching or exceeding 0.6?
N

Is the recorded value of fraction ligated equal to or greater than 0.6 for this sequence? TACATTGTCGTAAGACACTTTGGATGGGTTGA [2d49]
N

API: above_or_equal(metric=fraction ligated, cutoff=0.6) for item TATCACTTTCTAAGCACTTTGGATGGGTTGA [3d1482]
Y

Is it the case that TTCACTTGTCGTAAGACACTTTGTGGGTTGA [3d492] has fraction ligated reaching or exceeding 0.6?
N

fraction ligated >= 0.6 for TATCATTGTCGTAAGACACTTTGGTGGTTGA [3d1283] ?
N

Tell me whether fraction ligated is at least 0.6 here: TATCACTTGTCGAAGACATTGGATGGGTTGA [3d1950]
Y

Tell me whether fraction ligated is at least 0.6 here: TATCACTTGCTAAGACACTTTGGATGGTTGA [3d1610]
N

Tell me whether fraction ligated is at least 0.6 here: TATACTTGTCTAAGACACTTTGGATGGGTTA [3d855]
N

Check if fraction ligated >= 0.6 (inclusive). Item: TTCCTTGTCGTAAGACACTTTGGATGGGTTG [3d316]
Y

Evaluate TATACTTGTCTAAGACACTTGGATGGGTTGA [3d850] : fraction ligated at minimum 0.6?
Y

Identify whether the reported fraction ligated of the following sequence is 0.6 or greater: TATCACTTGTCGTGACACTTTGGAGGGTTGA [3d1989]
N

Say whether TATCACTTGTCGAAGACACTTTGGATGGGTTG [2d220] shows fraction ligated of 0.6 or more.
Y
